Biological target: FLT3 TKD mutation D835Y (Homo sapiens, UniProt P36888, D835Y)
Sequence (P36888 27-993 D835Y): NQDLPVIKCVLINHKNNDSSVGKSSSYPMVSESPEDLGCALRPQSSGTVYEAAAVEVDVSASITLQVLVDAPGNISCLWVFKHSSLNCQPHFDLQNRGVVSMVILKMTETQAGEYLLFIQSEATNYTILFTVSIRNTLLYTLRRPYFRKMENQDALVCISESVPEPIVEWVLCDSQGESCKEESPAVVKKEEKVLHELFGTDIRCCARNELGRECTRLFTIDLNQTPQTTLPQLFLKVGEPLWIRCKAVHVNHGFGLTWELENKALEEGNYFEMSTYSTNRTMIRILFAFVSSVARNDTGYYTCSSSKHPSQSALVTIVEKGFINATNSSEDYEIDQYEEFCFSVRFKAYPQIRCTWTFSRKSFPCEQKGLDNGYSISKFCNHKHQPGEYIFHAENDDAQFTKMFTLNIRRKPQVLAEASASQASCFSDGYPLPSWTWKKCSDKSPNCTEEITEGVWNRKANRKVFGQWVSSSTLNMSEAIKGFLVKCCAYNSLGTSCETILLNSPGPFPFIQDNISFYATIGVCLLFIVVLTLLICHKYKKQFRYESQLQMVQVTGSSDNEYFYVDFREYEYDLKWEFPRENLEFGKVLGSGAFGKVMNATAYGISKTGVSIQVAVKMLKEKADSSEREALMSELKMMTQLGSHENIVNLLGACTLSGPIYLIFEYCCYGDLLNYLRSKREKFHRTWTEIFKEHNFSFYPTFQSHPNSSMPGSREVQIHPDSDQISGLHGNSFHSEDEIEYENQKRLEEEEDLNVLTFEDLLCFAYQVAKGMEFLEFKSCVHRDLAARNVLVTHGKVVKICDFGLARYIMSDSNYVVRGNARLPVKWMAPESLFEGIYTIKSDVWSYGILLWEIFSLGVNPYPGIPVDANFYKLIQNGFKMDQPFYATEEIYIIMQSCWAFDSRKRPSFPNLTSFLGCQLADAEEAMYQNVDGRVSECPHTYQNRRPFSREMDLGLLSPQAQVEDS
Test: Direct enzyme phosphorylation assay (Millipore Kinase IC50 Profiler), FLT3 D835Y
Details: tosylate salt; n=2; read-out: IC50 against the FLT3 TKD mutation D835Y
Measure name: pIC50
Notebook: values listed as pIC50 are -log10 of the concentration (mol/L).

Test system FLT3 TKD mutation D835Y (Homo sapiens, UniProt P36888, D835Y); read-out pIC50; what value for `COCCOc1ccc2c(c1)ncn2-c1ccc2cccc(N3CCC(N)CC3)c2n1` ? 8.52
